B1: ZNF263 (parent)
chain: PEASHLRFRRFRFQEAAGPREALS

# Variants of: B1
# PROCEDURE_TEXT: protein stability index of a GFP-peptide fusion (GPS, HEK-293T) (PSI 1-6); higher = more stable;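 note: lentivirally expressed fusions sorted by FACS into six bins by GFP to DsRed ratio, PSI derived from sequencing read proportions per bin multiplied by bin number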
# MEASUREMENT_SETUP: c terminus: a fixed tail appended
Recorded protein stability index by entry

[
  {
    "VARIANT_ANNOTATION": "F8D",
    "protein stability index": 3.08
  },
  {
    "VARIANT_ANNOTATION": "A22F",
    "protein stability index": 2.6
  },
  {
    "VARIANT_ANNOTATION": "L23R",
    "protein stability index": 3.11
  },
  {
    "VARIANT_ANNOTATION": "L6W",
    "protein stability index": 2.37
  },
  {
    "VARIANT_ANNOTATION": "F11C",
    "protein stability index": 2.45
  },
  {
    "VARIANT_ANNOTATION": "F8P",
    "protein stability index": 3.04
  },
  {
    "VARIANT_ANNOTATION": "A3K",
    "protein stability index": 2
  },
  {
    "VARIANT_ANNOTATION": "S24H",
    "protein stability index": 2.68
  },
  {
    "VARIANT_ANNOTATION": "E21I",
    "protein stability index": 2.04
  },
  {
    "VARIANT_ANNOTATION": "R9M",
    "protein stability index": 2.78
  },
  {
    "VARIANT_ANNOTATION": "S24D",
    "protein stability index": 3.06
  },
  {
    "VARIANT_ANNOTATION": "A17R",
    "protein stability index": 2.15
  },
  {
    "VARIANT_ANNOTATION": "S4G",
    "protein stability index": 2.76
  },
  {
    "VARIANT_ANNOTATION": "P1V",
    "protein stability index": 1.85
  },
  {
    "VARIANT_ANNOTATION": "S24M",
    "protein stability index": 2.19
  },
  {
    "VARIANT_ANNOTATION": "A3D",
    "protein stability index": 3.1
  },
  {
    "VARIANT_ANNOTATION": "F8H",
    "protein stability index": 3.23
  },
  {
    "VARIANT_ANNOTATION": "F11K",
    "protein stability index": 3.85
  },
  {
    "VARIANT_ANNOTATION": "R7N",
    "protein stability index": 3.08
  },
  {
    "VARIANT_ANNOTATION": "L23F",
    "protein stability index": 2.58
  },
  {
    "VARIANT_ANNOTATION": "H5N",
    "protein stability index": 2.31
  },
  {
    "VARIANT_ANNOTATION": "R7T",
    "protein stability index": 3.66
  },
  {
    "VARIANT_ANNOTATION": "P19D",
    "protein stability index": 2.8
  },
  {
    "VARIANT_ANNOTATION": "G18K",
    "protein stability index": 2.84
  },
  {
    "VARIANT_ANNOTATION": "H5G",
    "protein stability index": 2.44
  },
  {
    "VARIANT_ANNOTATION": "A3T",
    "protein stability index": 2.52
  },
  {
    "VARIANT_ANNOTATION": "L6M",
    "protein stability index": 2.54
  },
  {
    "VARIANT_ANNOTATION": "F11Q",
    "protein stability index": 4.13
  },
  {
    "VARIANT_ANNOTATION": "R9E",
    "protein stability index": 2.21
  },
  {
    "VARIANT_ANNOTATION": "P1R",
    "protein stability index": 2.97
  }
]
